PROTOCOL_TEXT: Short-term stability in spiked pooled human plasma (bench-top, 4 °C, 56 °C)
MEASUREMENT_CONTEXT: validation standard ULOV
Overview of reported Short-time stability (24h, 4°C, without daylight) Accuracy [%] across a group of compounds:
Supply the numeric figure in %, leaving out any unit text.

Worked cases, answers included:
Nc1cccc2c1CN(C1CCC(=O)NC1=O)C2=O (centres unmarked) [Lenalidomide] :: 90.4
CO[C@@H]1[C@H](N(C)C(=O)c2ccccc2)C[C@H]2O[C@]1(C)n1c3ccccc3c3c4c(c5c6ccccc6n2c5c31)C(=O)NC4 :: 98.8
Cc1cn(-c2cc(NC(=O)c3ccc(C)c(Nc4nccc(-c5cccnc5)n4)c3)cc(C(F)(F)F)c2)cn1 :: 97.1
CNC(=O)c1ccccc1Sc1ccc2c(/C=C/c3ccccn3)n[nH]c2c1 :: 97.2
COc1cc(N2CCC(N3CCN(C)CC3)CC2)ccc1Nc1ncc(Cl)c(Nc2ccccc2P(C)(C)=O)n1 :: 93.7
CNCc1ccc(-c2[nH]c3cc(F)cc4c3c2CCNC4=O)cc1 :: 96.9

Short-time stability (24h, 4°C, without daylight) Accuracy [%] for CCOc1cc2ncc(C#N)c(Nc3ccc(OCc4ccccn4)c(Cl)c3)c2cc1NC(=O)/C=C/CN(C)C is 81.3

Short-time stability (24h, 4°C, without daylight) Accuracy [%] for COc1cc2nccc(Oc3ccc(NC(=O)C4(C(=O)Nc5ccc(F)cc5)CC4)cc3)c2cc1OC [Cabozantinib] is 96.1

Short-time stability (24h, 4°C, without daylight) Accuracy [%] for N#CC[C@H](C1CCCC1)n1cc(-c2ncnc3[nH]ccc23)cn1 is 95.9

Short-time stability (24h, 4°C, without daylight) Accuracy [%] for Cc1[nH]c2ccccc2c1CCNCc1ccc(/C=C/C(=O)NO)cc1 is 89.2

Short-time stability (24h, 4°C, without daylight) Accuracy [%] for COc1cc2nccc(Oc3ccc(NC(=O)NC4CC4)c(Cl)c3)c2cc1C(N)=O is 100.4

Short-time stability (24h, 4°C, without daylight) Accuracy [%] for CS(=O)(=O)CCNCc1ccc(-c2ccc3ncnc(Nc4ccc(OCc5cccc(F)c5)c(Cl)c4)c3c2)o1 is 94.3

Short-time stability (24h, 4°C, without daylight) Accuracy [%] for Cc1ccc(Nc2nccc(N(C)c3ccc4c(C)n(C)nc4c3)n2)cc1S(N)(=O)=O is 97.1

Short-time stability (24h, 4°C, without daylight) Accuracy [%] for CN(C)C/C=C/C(=O)Nc1cc2c(Nc3ccc(F)c(Cl)c3)ncnc2cc1O[C@H]1CCOC1 is 92.8

Short-time stability (24h, 4°C, without daylight) Accuracy [%] for O=c1[nH]c(=O)n([C@H]2C[C@H](O)[C@@H](CO)O2)cc1C(F)(F)F is 85.5

Short-time stability (24h, 4°C, without daylight) Accuracy [%] for O=C1CCC(N2C(=O)c3ccccc3C2=O)C(=O)N1 (centres unmarked) [Thalidomide] is 55.2

Short-time stability (24h, 4°C, without daylight) Accuracy [%] for COc1cc2nccc(Oc3ccc(NC(=O)Nc4cc(C)on4)c(Cl)c3)c2cc1OC is 98.0

Short-time stability (24h, 4°C, without daylight) Accuracy [%] for C#Cc1cccc(Nc2ncnc3cc(OCCOC)c(OCCOC)cc23)c1 is 98.7

Short-time stability (24h, 4°C, without daylight) Accuracy [%] for O=C1CN2Cc3c(ccc(Cl)c3Cl)N=C2N1 [Anagrelide] is 93.5

Short-time stability (24h, 4°C, without daylight) Accuracy [%] for CS(=O)(=O)c1ccc(C(=O)Nc2ccc(Cl)c(-c3ccccn3)c2)c(Cl)c1 is 94.5

Short-time stability (24h, 4°C, without daylight) Accuracy [%] for NC(=O)c1cccc2cn(-c3ccc([C@@H]4CCCNC4)cc3)nc12 is 92.7

Short-time stability (24h, 4°C, without daylight) Accuracy [%] for Cc1cc(Nc2ncc(Cl)c(Nc3ccccc3S(=O)(=O)C(C)C)n2)c(OC(C)C)cc1C1CCNCC1 is 92.7

Short-time stability (24h, 4°C, without daylight) Accuracy [%] for CC1(C)CCC(CN2CCN(c3ccc(C(=O)NS(=O)(=O)c4ccc(NCC5CCOCC5)c([N+](=O)[O-])c4)c(Oc4cnc5[nH]ccc5c4)c3)CC2)=C(c2ccc(Cl)cc2)C1 is 99.7

Short-time stability (24h, 4°C, without daylight) Accuracy [%] for Cn1cnc2c(F)c(Nc3ccc(Br)cc3F)c(C(=O)NOCCO)cc21 is 96.8
